biological target: Heat shock factor protein 1 (Mus musculus); experiment: HSF1 potentiators in luciferase reporter cells, confirmation, cell-based, NIH3T3, luminescence, dose retest (AID 435004); assay type: functional;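 note: stress induced by proteasome inhibitor MG132 added 30 min after compound; luciferase reporter driven by HSF1 response element in NIH3T3 cells; actives raise luminescence as potentiators of the MG132 stress response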
Sequence (P38532 whole entry): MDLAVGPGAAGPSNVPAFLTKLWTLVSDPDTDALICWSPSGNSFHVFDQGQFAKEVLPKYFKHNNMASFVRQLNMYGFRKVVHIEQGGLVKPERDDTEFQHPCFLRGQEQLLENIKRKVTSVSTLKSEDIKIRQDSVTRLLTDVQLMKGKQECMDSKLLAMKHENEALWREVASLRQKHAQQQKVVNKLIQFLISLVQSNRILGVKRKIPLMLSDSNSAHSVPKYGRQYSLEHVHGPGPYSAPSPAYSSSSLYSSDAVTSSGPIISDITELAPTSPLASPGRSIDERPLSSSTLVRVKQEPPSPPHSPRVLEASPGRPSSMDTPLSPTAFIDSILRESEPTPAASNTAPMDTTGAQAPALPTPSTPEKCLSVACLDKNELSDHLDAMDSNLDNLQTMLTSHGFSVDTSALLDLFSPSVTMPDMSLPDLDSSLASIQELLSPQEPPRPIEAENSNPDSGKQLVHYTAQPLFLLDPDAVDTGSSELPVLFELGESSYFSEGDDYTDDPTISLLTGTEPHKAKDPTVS
Calls of active or inactive are those of the source.
property_name: EC50

Worked examples follow.
{"compound": "CC(=O)NCCn1ccc2ccccc21", "assay_target": "Heat shock factor protein 1 (Mus musculus)", "EC50": "> 260 µM (inactive)"}
{"compound": "CC(C)(C)c1ccc(OCC(=O)NN2Cc3ccccc3C2=N)cc1", "assay_target": "Heat shock factor protein 1 (Mus musculus)", "EC50": "> 260 µM (inactive)"}
{"compound": "Cc1cccc(CN2CCC(C(=O)Nc3cccc(-c4cscn4)c3)CC2)n1", "assay_target": "Heat shock factor protein 1 (Mus musculus)", "EC50": "> 260 µM (inactive)"}
{"compound": "COc1cccc(C(=O)Nc2ccc3c(C)cc(=O)oc3c2)c1", "assay_target": "Heat shock factor protein 1 (Mus musculus)", "EC50": "> 260 µM (inactive)"}
{"compound": "CC(=O)N1c2ccc(C)cc2C(c2ccccc2)CC1C (stereo unspecified)", "assay_target": "Heat shock factor protein 1 (Mus musculus)", "EC50": "> 260 µM (inactive)"}

// moving on: another record for EC50
Request body: readout EC50, system Heat shock factor protein 1 (Mus musculus), query CCCc1ccc(NC(=O)C2CCCN(c3cnccn3)C2)cc1 (stereo unspecified) . Return the value. > 260 µM (inactive)

----------
assay: cells; type: functional, cell-based
Activity calls are given as the source filed them.
Provide the recorded EC50 for the entries that follow.

Worked examples follow.
{"entry_smiles": "COc1ccc(NC(=O)Nc2ccc(Br)cn2)cc1", "EC50": "> 350 µM (not active)"}
{"entry_smiles": "Cc1ccc(C(=O)NC(=S)NNS(=O)(=O)c2ccc(C)cc2)cc1", "EC50": "> 350 µM (not active)"}
{"entry_smiles": "CCOC(=O)c1sc(Nc2cccc(Cl)c2)nc1C", "EC50": "19.5 µM (active)"}

// moving on: another record for EC50
Endpoint output: EC50 of O=C(Nc1nc2ccc([N+](=O)[O-])cc2s1)c1c(F)cccc1F . Value? 31.2 µM (active)

----------
assay: inhibitors of SNCA 5'UTR-driven reporter translation, confirmation, H4 neuroglioma cells, luminescence (AID 1988); type: functional, cell-based
Calls of active or inactive are those of the source.
Provide the recorded EC50 for the entries that follow.

Worked examples follow.
{"entry_smiles": "COc1cc2c(cc1OC)-c1cc(NC3CCCCCCC3)nc(=O)n1CC2", "EC50": "> 120 µM (not active)"}
{"entry_smiles": "O=C(N/N=C/c1cccs1)c1cc(-c2ccncc2)nc2ccccc12", "EC50": "< 0.1 µM (active)"}
{"entry_smiles": "COc1ccccc1C(=O)NCC(=O)N/N=C/c1cc(Br)ccc1OC(=O)/C=C\\c1ccco1", "EC50": "11 µM (active)"}

// moving on: another record for EC50
Endpoint output: EC50 of CC(=O)c1ccccc1OCCOCCOCCOc1ccccc1C(C)=O . Value? > 120 µM (not active)

----------
Provide the recorded AC50 for the entries that follow.
Target: Cytochrome P450 1A2 (Homo sapiens);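 note: PubChem cytochrome P450 panel assay, CYP1A2 panel member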
Sequence (P05177 whole entry): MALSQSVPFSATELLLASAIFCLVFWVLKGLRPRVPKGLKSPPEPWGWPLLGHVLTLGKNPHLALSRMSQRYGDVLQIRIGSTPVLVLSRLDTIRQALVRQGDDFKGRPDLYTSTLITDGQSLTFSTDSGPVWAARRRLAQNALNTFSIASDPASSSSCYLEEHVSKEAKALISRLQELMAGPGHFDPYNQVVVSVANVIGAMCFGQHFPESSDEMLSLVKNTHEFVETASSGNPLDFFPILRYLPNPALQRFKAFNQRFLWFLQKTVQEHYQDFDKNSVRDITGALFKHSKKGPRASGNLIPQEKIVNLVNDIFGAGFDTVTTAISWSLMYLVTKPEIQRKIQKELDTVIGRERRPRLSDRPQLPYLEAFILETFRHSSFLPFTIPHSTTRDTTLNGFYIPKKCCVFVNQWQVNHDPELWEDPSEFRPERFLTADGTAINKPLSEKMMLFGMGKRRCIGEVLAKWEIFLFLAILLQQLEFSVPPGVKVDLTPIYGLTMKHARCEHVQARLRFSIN

Worked examples follow.
{"molecule": "COc1ccc(-n2c(=O)c(-c3cn(C)c4ccccc34)nc3cnc(N4CCOCC4)nc32)cc1", "assay_target": "Cytochrome P450 1A2 (Homo sapiens)", "AC50": "31.6 µM (inconclusive)"}
{"molecule": "Cc1c(-c2ccccc2)oc2c(C(=O)OCCN3CCCCC3)cccc2c1=O [FLAVOXATE]", "assay_target": "Cytochrome P450 1A2 (Homo sapiens)", "AC50": "6.31 µM (inconclusive)"}
{"molecule": "Cc1cc(C)c(C(N)=O)c(SCC(=O)c2ccc(Cl)cc2)n1", "assay_target": "Cytochrome P450 1A2 (Homo sapiens)", "AC50": "15.8 µM (inconclusive)"}
{"molecule": "O=C(CN(Cc1ccccc1)S(=O)(=O)c1ccc2c(c1)OCCO2)N/N=C/c1ccc(F)cc1", "assay_target": "Cytochrome P450 1A2 (Homo sapiens)", "AC50": "11.2 µM (inconclusive)"}
{"molecule": "Cc1ccccc1C(=O)Nc1ccc(N2CCOCC2)nc1", "assay_target": "Cytochrome P450 1A2 (Homo sapiens)", "AC50": "17.8 µM (inconclusive)"}
{"molecule": "COc1ccccc1CN1CCCC2(CCN(C(=O)c3ccncc3)CC2)C1", "assay_target": "Cytochrome P450 1A2 (Homo sapiens)", "AC50": "20 µM (inconclusive)"}
{"molecule": "Cc1cc(OC(=O)c2ccc(Cl)cc2Cl)nc(C)n1", "assay_target": "Cytochrome P450 1A2 (Homo sapiens)", "AC50": "28.2 µM (inconclusive)"}
{"molecule": "CN(C(=O)Cc1ccc(Cl)c(Cl)c1)[C@H](CN1CCCC1)c1ccccc1", "assay_target": "Cytochrome P450 1A2 (Homo sapiens)", "AC50": "31.6 µM (inconclusive)"}

// batch mode: one AC50 value per listed entry
1. O=C1c2ccccc2C(=O)c2c1ccc(C(=O)O)c2-c1ccc2ccccc2c1
2. Cc1ccc2nc(SCC(=O)NCc3cccs3)c(C#N)cc2c1
3. O=S(=O)(c1ccccc1)N1CCC[C@@]2(CCN(c3cccc(-c4ccccc4)c3)C2)C1
4. CC12COC3(C(=O)Nc4nccs4)CC1CCC32C (stereo not drawn)
5. CN(C)c1ncc2nc(-c3ccc(Cl)cc3)c(=O)n(-c3ccccc3)c2n1
6. Cc1noc(C)c1-c1cncnc1Nc1ccccc1
7. CCNc1ncc2nc(-c3cccc(C#N)c3)c(=O)n(CCC#N)c2n1

1. 1.26 µM (inconclusive)
2. 0.708 µM (inconclusive)
3. 15.8 µM (inconclusive)
4. 12.6 µM (inconclusive)
5. 5.01 µM (inconclusive)
6. 25.1 µM (inconclusive)
7. 0.631 µM (inconclusive)

// batch mode: one AC50 value per listed entry
1. CCOC(=O)c1ccccc1NC(=O)CSc1cccc[n+]1[O-]
2. C/C(=N/NC(=O)c1cccs1)c1ccc(NC(=O)COc2ccc(Cl)cc2Cl)cc1
3. CCCCC/C=C\C/C=C\C/C=C\C/C=C\CCCC(=O)Nc1ccc(O)cc1
4. COc1ccc(C2SCC(=O)Nc3c2c(C)nn3-c2ccccc2)cc1OC (stereo not drawn)
5. Clc1ccc(N2CCCCCC2)nn1

1: 25.1 µM (inconclusive); 2: 12.6 µM (inconclusive); 3: 20 µM (inconclusive); 4: 22.4 µM (inconclusive); 5: 15.8 µM (inconclusive)

// batch mode: one AC50 value per listed entry
1. CCCOc1ccc(C(=O)NNC(=S)NC(=O)c2cc(-c3ccccc3)nc3ccccc23)cc1
2. COC(=O)C1(Cc2ccccc2)C=C2C(=C(C(C)C)C(=O)C2C)CN1 (stereo not drawn)
3. C[C@@H](C(=O)NCc1ccccn1)[C@@H]1C[C@@]1(C)[C@@H](NC(=O)OCc1ccccc1)c1ccccc1

1: 17.8 µM (inconclusive); 2: 15.8 µM (inconclusive); 3: 20 µM (inconclusive)
